// reported MIC for each item listed
- System: Enterococcus
- Method description: Antibacterial activity against vancomycin resistant Enterococcus NCTC 12201 after 24 hrs by microdilution method
- Assay type: functional
- Protocol conditions: NCTC 12201, 24 h
Outcome measure: MIC (µg/mL)

Input smiles: O=C(CCCc1ccc(F)cc1)OC[C@H]1O[C@@H](Oc2c(-c3ccc(O)c(O)c3)oc3cc(O)cc(O)c3c2=O)[C@H](OC(=O)CCCc2ccc(F)cc2)[C@@H](O)[C@H]1O
Unit text: µg/mL
Reported value: 8
//
Input smiles: Cc1ccc(CCC(=O)OC[C@H]2O[C@@H](Oc3c(-c4ccc(O)c(O)c4)oc4cc(O)cc(O)c4c3=O)[C@H](OC(=O)CCc3ccc(C)cc3)[C@@H](O)[C@H]2O)cc1
Unit text: µg/mL
Reported value: 0.5
//
Input smiles: CCOc1ccc(CCC(=O)O[C@H]2[C@H](Oc3c(-c4ccc(O)c(O)c4)oc4cc(O)cc(O)c4c3=O)O[C@H](CO)[C@@H](O)[C@@H]2OC(=O)CCc2ccc(OCC)cc2)cc1
Unit text: µg/mL
Reported value: 4
